target: UniProt:P00533
Sequence (P00533 25-1210, looked up): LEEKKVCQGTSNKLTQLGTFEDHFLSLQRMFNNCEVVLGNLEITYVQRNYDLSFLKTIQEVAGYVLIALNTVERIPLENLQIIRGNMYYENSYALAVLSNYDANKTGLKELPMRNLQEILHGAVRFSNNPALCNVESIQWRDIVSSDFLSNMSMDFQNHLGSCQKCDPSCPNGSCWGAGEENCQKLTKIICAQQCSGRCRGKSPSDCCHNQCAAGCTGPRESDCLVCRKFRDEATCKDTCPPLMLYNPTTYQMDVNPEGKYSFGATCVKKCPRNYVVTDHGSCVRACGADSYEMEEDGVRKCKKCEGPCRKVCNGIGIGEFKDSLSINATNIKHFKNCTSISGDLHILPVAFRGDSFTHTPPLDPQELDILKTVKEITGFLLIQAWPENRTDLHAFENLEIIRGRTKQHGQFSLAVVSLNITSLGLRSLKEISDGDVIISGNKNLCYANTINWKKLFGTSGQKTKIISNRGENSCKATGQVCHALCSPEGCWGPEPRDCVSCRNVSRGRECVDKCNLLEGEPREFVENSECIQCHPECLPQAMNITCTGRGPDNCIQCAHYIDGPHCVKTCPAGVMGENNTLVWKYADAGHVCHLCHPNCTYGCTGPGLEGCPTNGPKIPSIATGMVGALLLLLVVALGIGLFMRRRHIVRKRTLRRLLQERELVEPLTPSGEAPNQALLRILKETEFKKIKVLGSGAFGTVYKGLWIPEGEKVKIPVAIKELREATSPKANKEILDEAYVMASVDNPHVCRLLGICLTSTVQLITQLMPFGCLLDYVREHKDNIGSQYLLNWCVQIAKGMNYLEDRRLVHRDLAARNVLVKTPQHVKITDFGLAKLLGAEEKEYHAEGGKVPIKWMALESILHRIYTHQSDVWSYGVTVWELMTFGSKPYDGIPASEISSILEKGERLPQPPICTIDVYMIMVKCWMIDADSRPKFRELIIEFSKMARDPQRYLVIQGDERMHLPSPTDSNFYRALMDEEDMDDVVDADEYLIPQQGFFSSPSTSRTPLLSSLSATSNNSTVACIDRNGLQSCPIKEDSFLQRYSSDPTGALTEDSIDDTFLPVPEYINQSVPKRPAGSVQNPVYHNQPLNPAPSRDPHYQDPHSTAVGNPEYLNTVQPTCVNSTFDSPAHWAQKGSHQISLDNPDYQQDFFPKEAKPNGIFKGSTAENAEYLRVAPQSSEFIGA
pIC50: −log10 of the molar value.
MEASUREMENT TYPE: pIC50

>>> experimental_result("CC(C)=CC[C@@H](OC(=O)CC(C)(C)O)C1=CC(=O)c2c(O)ccc(O)c2C1=O [β‐HIVS, β‐Hydroxyisovalerylshikonin]")
"~6.15"

----------
biological target: Flt-1 (Homo sapiens, UniProt P17948); test: PTK activity in Flt-1-overexpressing NIH3T3 cells
Sequence (P17948 27-1338, species assumed): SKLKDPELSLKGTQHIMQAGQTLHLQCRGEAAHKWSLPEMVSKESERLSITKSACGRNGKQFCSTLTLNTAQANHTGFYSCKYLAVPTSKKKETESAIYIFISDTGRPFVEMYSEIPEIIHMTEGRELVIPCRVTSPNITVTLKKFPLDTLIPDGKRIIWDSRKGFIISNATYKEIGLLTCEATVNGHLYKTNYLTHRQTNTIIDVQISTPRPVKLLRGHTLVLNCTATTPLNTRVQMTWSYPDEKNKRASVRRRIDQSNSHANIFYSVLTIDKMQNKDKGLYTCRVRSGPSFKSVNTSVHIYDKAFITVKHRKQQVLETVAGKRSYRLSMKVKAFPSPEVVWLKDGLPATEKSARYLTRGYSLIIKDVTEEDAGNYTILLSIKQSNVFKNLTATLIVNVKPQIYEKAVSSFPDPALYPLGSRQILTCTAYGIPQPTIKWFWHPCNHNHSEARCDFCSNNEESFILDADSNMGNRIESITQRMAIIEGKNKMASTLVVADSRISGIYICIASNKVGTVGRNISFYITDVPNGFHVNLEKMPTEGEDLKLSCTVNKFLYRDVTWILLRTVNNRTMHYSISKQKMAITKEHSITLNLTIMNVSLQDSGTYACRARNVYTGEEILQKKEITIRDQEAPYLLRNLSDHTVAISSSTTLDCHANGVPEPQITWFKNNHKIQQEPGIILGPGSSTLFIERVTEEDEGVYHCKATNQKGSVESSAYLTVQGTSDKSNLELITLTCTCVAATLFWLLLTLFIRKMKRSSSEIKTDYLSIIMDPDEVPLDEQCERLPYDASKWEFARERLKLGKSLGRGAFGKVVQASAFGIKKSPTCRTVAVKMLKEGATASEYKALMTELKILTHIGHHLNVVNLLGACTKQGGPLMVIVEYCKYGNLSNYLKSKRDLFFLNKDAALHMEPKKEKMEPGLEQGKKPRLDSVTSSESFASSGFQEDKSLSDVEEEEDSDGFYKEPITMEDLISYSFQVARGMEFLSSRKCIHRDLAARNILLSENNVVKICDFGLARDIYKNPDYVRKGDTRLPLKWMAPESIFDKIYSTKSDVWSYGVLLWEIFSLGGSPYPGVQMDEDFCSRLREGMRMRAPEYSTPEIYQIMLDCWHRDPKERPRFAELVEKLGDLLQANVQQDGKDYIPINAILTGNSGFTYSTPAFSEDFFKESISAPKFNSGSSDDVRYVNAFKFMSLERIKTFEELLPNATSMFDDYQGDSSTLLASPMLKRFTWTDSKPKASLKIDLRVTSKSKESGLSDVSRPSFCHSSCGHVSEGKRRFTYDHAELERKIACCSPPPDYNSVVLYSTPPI
pIC50: −log10 of the molar value.
MEASUREMENT TYPE: pIC50

>>> experimental_result("CC(C)=CC[C@@H](OC(=O)CC(C)(C)O)C1=CC(=O)c2c(O)ccc(O)c2C1=O [β‐HIVS, β‐Hydroxyisovalerylshikonin]")
"< 5.30"

Data origin: paper PMC5927115
